B1: EEHEE_rd4_0763 (parent)
chain: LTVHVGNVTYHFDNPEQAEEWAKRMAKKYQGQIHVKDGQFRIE

Variants of: B1
Assay: folding stability dG (cDNA display proteolysis); higher = more stable
Conditions: PBS, room temperature
Decision: folding stability dG compared against 1 kcal/mol; not below it gives MET, below it gives NOT MET.

Request: Quick check: does `R24M` have folding stability dG greater than or equal to 1 kcal/mol?
Result: MET

Request: Quick check: does `G31C` have folding stability dG greater than or equal to 1 kcal/mol?
Result: MET

Request: Quick check: does `D13A` have folding stability dG greater than or equal to 1 kcal/mol?
Result: MET

Request: Quick check: does `T9Q` have folding stability dG greater than or equal to 1 kcal/mol?
Result: MET

Request: Quick check: does `Y29R` have folding stability dG greater than or equal to 1 kcal/mol?
Result: NOT MET

Request: Quick check: does `Q17M` have folding stability dG greater than or equal to 1 kcal/mol?
Result: MET

Request: Quick check: does `A26G` have folding stability dG greater than or equal to 1 kcal/mol?
Result: NOT MET

Request: Quick check: does `E20T` have folding stability dG greater than or equal to 1 kcal/mol?
Result: MET

Request: Quick check: does `T9E` have folding stability dG greater than or equal to 1 kcal/mol?
Result: MET

Request: Quick check: does `Q39K` have folding stability dG greater than or equal to 1 kcal/mol?
Result: MET

Request: Quick check: does `D37F` have folding stability dG greater than or equal to 1 kcal/mol?
Result: NOT MET

Request: Quick check: does `E19Y` have folding stability dG greater than or equal to 1 kcal/mol?
Result: MET

Request: Quick check: does `K28C` have folding stability dG greater than or equal to 1 kcal/mol?
Result: MET

Request: Quick check: does `K27E` have folding stability dG greater than or equal to 1 kcal/mol?
Result: MET

Request: Quick check: does `P15I` have folding stability dG greater than or equal to 1 kcal/mol?
Result: MET

Request: Quick check: does `E19M` have folding stability dG greater than or equal to 1 kcal/mol?
Result: MET

Request: Quick check: does `P15A` have folding stability dG greater than or equal to 1 kcal/mol?
Result: MET

Request: Quick check: does `T2H` have folding stability dG greater than or equal to 1 kcal/mol?
Result: MET

Request: Quick check: does `V35W` have folding stability dG greater than or equal to 1 kcal/mol?
Result: MET

Request: Quick check: does `F40K` have folding stability dG greater than or equal to 1 kcal/mol?
Result: MET

Request: Quick check: does `V3A` have folding stability dG greater than or equal to 1 kcal/mol?
Result: NOT MET

Request: Quick check: does `K23E` have folding stability dG greater than or equal to 1 kcal/mol?
Result: MET

Request: Quick check: does `L1S` have folding stability dG greater than or equal to 1 kcal/mol?
Result: MET

Request: Quick check: does `G6I` have folding stability dG greater than or equal to 1 kcal/mol?
Result: MET

Request: Quick check: does `V3M` have folding stability dG greater than or equal to 1 kcal/mol?
Result: NOT MET

Request: Quick check: does `V35C` have folding stability dG greater than or equal to 1 kcal/mol?
Result: MET

Request: Quick check: does `P15Y` have folding stability dG greater than or equal to 1 kcal/mol?
Result: MET

Request: Quick check: does `K36P` have folding stability dG greater than or equal to 1 kcal/mol?
Result: NOT MET

Request: Quick check: does `V8T` have folding stability dG greater than or equal to 1 kcal/mol?
Result: MET

Request: Quick check: does `K28E` have folding stability dG greater than or equal to 1 kcal/mol?
Result: MET

Request: Quick check: does `A26N` have folding stability dG greater than or equal to 1 kcal/mol?
Result: NOT MET

Request: Quick check: does `G6W` have folding stability dG greater than or equal to 1 kcal/mol?
Result: MET

Request: Quick check: does `V3L` have folding stability dG greater than or equal to 1 kcal/mol?
Result: MET

Request: Quick check: does `G31Q` have folding stability dG greater than or equal to 1 kcal/mol?
Result: MET

Request: Quick check: does `V5F` have folding stability dG greater than or equal to 1 kcal/mol?
Result: MET

Request: Quick check: does `H34K` have folding stability dG greater than or equal to 1 kcal/mol?
Result: MET

Request: Quick check: does `Q17Y` have folding stability dG greater than or equal to 1 kcal/mol?
Result: MET

Request: Quick check: does `Y10N` have folding stability dG greater than or equal to 1 kcal/mol?
Result: NOT MET

Request: Quick check: does `K28T` have folding stability dG greater than or equal to 1 kcal/mol?
Result: MET

Request: Quick check: does `G38D` have folding stability dG greater than or equal to 1 kcal/mol?
Result: MET

Request: Quick check: does `K28N` have folding stability dG greater than or equal to 1 kcal/mol?
Result: NOT MET

Request: Quick check: does `H4P` have folding stability dG greater than or equal to 1 kcal/mol?
Result: NOT MET

Request: Quick check: does `T9H` have folding stability dG greater than or equal to 1 kcal/mol?
Result: MET
